Target: DUSP5 (PD)-WT (Homo sapiens)
Construct: hexa-histidine (N); made in house; host or cells: E. coli BL21(DE3)
Sequence (Q16690 178-319): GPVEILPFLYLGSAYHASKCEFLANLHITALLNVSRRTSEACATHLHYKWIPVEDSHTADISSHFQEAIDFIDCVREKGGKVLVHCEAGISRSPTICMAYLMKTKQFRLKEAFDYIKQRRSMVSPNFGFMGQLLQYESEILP
Test: Phosphatase inhibition profiles (Table 4), initial rates
Assay type: biochemical
Details: using ERK2 as substrate, read-out: IC50 DUSP5 (PD)-WT (mean ± SE)
quantity: IC50

Task: Identify IC50 associated with the compound `O=S(=O)(O)c1cc(O)c2c(S(=O)(=O)O)cccc2c1`
Result: > 1000 µM

* * *

Each record here notes measured IC50.
biological target: DUSP5 (PD)-WT (Homo sapiens); construct: hexa-histidine (N); made in house; host or cells: E. coli BL21(DE3); assay: Phosphatase inhibition profiles (Table 4), initial rates; assay type: biochemical; details: read-out: IC50 DUSP5 (PD)-WT (mean ± SE)
Kindly answer with a numeric value in µM, unit omitted.

Task: Identify IC50 associated with the molecule O=S(=O)(O)c1cc(O)c2cccc(N=Nc3cccc4c(O)cc(S(=O)(=O)O)cc34)c2c1 [RR601]
Result: 30

Task: Identify IC50 associated with the molecule O=S(=O)(O)c1cc(Oc2cc(S(=O)(=O)O)cc(S(=O)(=O)O)c2O)c(O)c(S(=O)(=O)O)c1 [RR533]
Result: 26.4

* * *

assay: Aggregation of compounds (nephelometry; detergent treatment); assay type: physicochemical
quantity: aggregation

O=S(=O)(O)c1cc(O)c2cccc(N=Nc3cccc4c(O)cc(S(=O)(=O)O)cc34)c2c1 [RR601] ... do not aggregate
Nc1cccc2c(O)cc(S(=O)(=O)O)cc12 [RR535] ... do not aggregate

* * *

Target: DUSP5 PD(WT) (Homo sapiens)
Construct: hexa-histidine (N); made in house; host or cells: E. coli BL21(DE3)
Sequence (Q16690 178-319 limits assumed): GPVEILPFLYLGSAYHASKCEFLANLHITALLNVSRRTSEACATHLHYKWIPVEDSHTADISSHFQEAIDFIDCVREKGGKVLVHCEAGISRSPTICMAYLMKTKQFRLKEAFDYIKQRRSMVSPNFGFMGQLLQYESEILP
Assay: pNPP phosphatase activity assay with DUSP5 PD(WT)
Type: biochemical
Conditions: pNPP assay with DUSP5 PD
quantity: IC50 (µM)
Kindly answer with a numeric value in µM, unit omitted.

Task: Identify IC50 associated with the molecule `O=S(=O)(O)c1cc(O)c2c(S(=O)(=O)O)cccc2c1`
Result: 484

* * *

Recorded below: IC50, system PTPN1 (Homo sapiens).
Kindly answer with a numeric value in µM, unit omitted.

O=S(=O)(O)c1cc(Oc2cc(S(=O)(=O)O)cc(S(=O)(=O)O)c2O)c(O)c(S(=O)(=O)O)c1 ... 106

Turning now to a further compound:
Task: Identify IC50 associated with the compound `O=S(=O)(O)c1cc(O)c2cccc(N=Nc3cccc4c(O)cc(S(=O)(=O)O)cc34)c2c1`
Result: 2.5
